Molecular target: Sodium-dependent noradrenaline transporter (Homo sapiens, UniProt P23975)
Sequence (P23975 whole entry): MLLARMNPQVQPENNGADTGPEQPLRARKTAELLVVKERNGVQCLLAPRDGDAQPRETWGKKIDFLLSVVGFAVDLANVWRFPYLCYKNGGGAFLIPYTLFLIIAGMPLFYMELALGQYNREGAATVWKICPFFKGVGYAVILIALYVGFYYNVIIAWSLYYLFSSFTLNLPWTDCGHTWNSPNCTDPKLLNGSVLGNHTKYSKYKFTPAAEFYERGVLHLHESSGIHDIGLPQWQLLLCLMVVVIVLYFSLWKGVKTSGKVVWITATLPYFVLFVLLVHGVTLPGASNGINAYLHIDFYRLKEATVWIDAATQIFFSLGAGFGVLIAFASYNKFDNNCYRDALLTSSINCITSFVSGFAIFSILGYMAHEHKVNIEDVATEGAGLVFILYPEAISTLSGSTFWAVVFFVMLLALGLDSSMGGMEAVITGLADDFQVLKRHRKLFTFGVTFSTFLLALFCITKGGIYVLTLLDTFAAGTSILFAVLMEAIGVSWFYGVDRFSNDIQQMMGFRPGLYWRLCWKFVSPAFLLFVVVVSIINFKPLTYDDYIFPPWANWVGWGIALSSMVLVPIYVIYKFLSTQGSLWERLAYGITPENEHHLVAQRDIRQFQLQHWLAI
Test: Inhibition of human NET expressed in HEK293 cells assessed as reduction in [3H]-NE uptake by micro beta scintillation counting analysis
measurement.label: IC50

Count: 4. Required value per item: IC50.
1. O=C(NCCCN1CCN(c2cccc(Cl)c2Cl)CC1)c1cccc2ccccc12
2. O=C(NCCCN1CCN(c2cccc(Cl)c2Cl)CC1)c1cc2ccccc2s1
3. O=C(NCCCN1CCN(c2cccc(Cl)c2Cl)CC1)c1cc2ccccc2o1
4. O=C(NCCCN1CCN(c2ncccn2)CC1)c1ccc2ccccc2c1

Result:
> 10 µM
3.66 µM
> 10 µM
> 10 µM

Count: 5. Required value per item: IC50.
1. O=C(NCCCN1CCN(c2ccc(Cl)cc2)CC1)c1cc2ccccc2s1
2. O=C(NCCCN1CCN(c2ccc(C(F)(F)F)cc2)CC1)c1cc2ccccc2o1
3. O=C(NCCCN1CCN(c2ccccn2)CC1)c1ccc2ccccc2n1
4. O=C(NCCCN1CCN(c2ccccn2)CC1)c1cc(Cl)cc(Cl)c1
5. COc1ccc(N2CCN(CCCNC(=O)c3ccc4ccccc4n3)CC2)cc1

Result:
1. 1.34 µM
2. > 10 µM
3. > 10 µM
4. > 10 µM
5. 6.07 µM

Count: 8. Required value per item: IC50.
1. O=C(NCCCN1CCN(c2cccc(Cl)c2Cl)CC1)c1cc(Cl)cc(Cl)c1
2. O=C(NCCCN1CCN(c2ccc(Cl)cc2)CC1)c1ccc2ccccc2c1
3. O=C(NCCCN1CCN(c2cccc(Cl)c2Cl)CC1)c1ccc(-c2ccccc2)cc1
4. O=C(NCCCN1CCN(c2ccccn2)CC1)c1cccc2ccccc12
5. O=C(NCCCN1CCN(c2ccccn2)CC1)c1ccc2ccccc2c1
6. O=C(NCCCN1CCN(c2ccc(Cl)cc2Cl)CC1)c1ccc2ccccc2n1
7. O=C(NCCCN1CCN(c2ncccn2)CC1)c1cc(Cl)cc(Cl)c1
8. O=C(NCCCN1CCN(c2cccc(Cl)c2Cl)CC1)c1ccc2ccccc2c1

Result:
["> 10 µM", "> 10 µM", "3.15 µM", "> 10 µM", "> 10 µM", "> 10 µM", "> 10 µM", "0.26 µM"]

Count: 2. Required value per item: IC50.
1. O=C(NCCCN1CCN(c2cccc(Cl)c2Cl)CC1)c1ccc2ccccc2n1
2. O=C(NCCCN1CCN(c2ncccn2)CC1)c1ccc2ccccc2n1

Result:
1. 2.55 µM
2. > 10 µM

Count: 2. Required value per item: IC50.
1. COc1ccccc1N1CCN(CCCNC(=O)c2ccc(-c3ccccc3)cc2)CC1
2. O=C(NCCCN1CCN(c2ncccn2)CC1)c1cccc2ccccc12

Result:
["4.96 µM", "> 10 µM"]

Count: 4. Required value per item: IC50.
1. COc1ccccc1N1CCN(CCCNC(=O)c2ccc3ccccc3n2)CC1
2. O=C(NCCCN1CCN(c2ccccc2)CC1)c1ccc2ccccc2n1
3. Cc1ccc(N2CCN(CCCNC(=O)c3ccc4ccccc4c3)CC2)cc1
4. O=C(NCCCN1CCN(c2ccc(Cl)c(Cl)c2)CC1)c1ccc2ccccc2n1

Result:
["> 10 µM", "> 10 µM", "2.69 µM", "> 10 µM"]

Count: 2. Required value per item: IC50.
1. O=C(NCCCN1CCN(c2ccc(Cl)cc2)CC1)c1ccc2ccccc2n1
2. Cc1ccc(N2CCN(CCCNC(=O)c3ccc4ccccc4n3)CC2)cc1

Result:
1. > 10 µM
2. > 10 µM
